biological target: Alpha-bungarotoxin (Bungarus multicinctus) (UniProt P60615); experiment: alpha-bungarotoxin binders on microarray, profiling panel, artefact control for SMM control protein annotation, biochemical, small-molecule microarray, Alexa647 label, 635/667 nm fluorescence (AID 1117); settings: alpha-BTX-A647 binding fluorescence, higher = more signal
Sequence (P60615 whole entry, looked up): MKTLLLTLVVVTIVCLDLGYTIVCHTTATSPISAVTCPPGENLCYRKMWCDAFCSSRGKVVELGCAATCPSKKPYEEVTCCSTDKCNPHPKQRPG
RECORDED ENDPOINT: composite z-score
Numbers only.

{"MOLECULE": "CC(C)(C)N1C(=O)[C@H]2[C@H]3[C@H](O)[C@H](O)CC(=O)[C@@H]3CC[C@H]2C1=O", "composite z-score": 0.106}

For the 3 molecules below, give their composite z-score values.
1. CC(C)C[C@H](NC(=O)CCC1CC(OC(=O)NCc2cccc3ccccc23)CC2(CCCC(COC(=O)NCc3ccccc3)O2)O1)C(=O)NCC(c1ccccc1)c1ccccc1 (stereo not given in full)
2. CC(C)=CCCC(C)=CCON=C1C[C@@H](O)[C@@H](O)[C@@H]2[C@@H]3C(=O)N(Cc4ccccc4)C(=O)[C@@H]3CC[C@@H]12
3. COc1cccc([C@H]2Oc3ccc(OC)cc3C(=NOC[C@@H](O)COCc3ccco3)[C@@H]2O)c1

-0.157
0.398
-0.799

Go through the list and state composite z-score for each entry.
1. CC(C)(C)N1C(=O)[C@H]2[C@H]3[C@H](O)[C@H](O)CC(=O)[C@H]3CC[C@H]2C1=O
2. CC(C)=CCCC(C)=CCON=C1C[C@@H](O)[C@@H](O)[C@@H]2[C@@H]3C(=O)N(C[C@@H]4CCCO4)C(=O)[C@@H]3CC[C@H]12
3. COc1cccc([C@H]2Oc3ccc(OC)cc3C(=NO[C@@H]3O[C@H](COC(C)=O)[C@@H](OC(C)=O)[C@H](OC(C)=O)[C@H]3OC(C)=O)[C@@H]2O)c1
4. CSCC[C@@H]1NC(=O)CC=C[C@@H](C)COC(=O)[C@@H](C)COC1=O

1. 0.642
2. 1.15
3. -0.275
4. -2.23

Dear colleague, could you please provide composite z-score for the molecules listed below?
1. O=C1C[C@@H](O)[C@@H](O)[C@@H]2[C@@H]3C(=O)N(C[C@@H]4CCCO4)C(=O)[C@@H]3CC[C@H]12
2. CCOC(=O)[C@H](Cc1ccccc1)NC(=O)CCC1CC(OC(=O)NCCc2ccc(F)cc2)CC2(CCCC(COC(=O)NCC3CCCCC3)O2)O1 (stereo not given in full)
3. CCCNC(=O)OC[C@H]1O[C@H](c2ccccc2)C=C[C@@H]1Oc1ccc(OC)cc1
4. CC(=O)OC[C@H]1O[C@@H](ON=C(C)CCN2CCCc3nc(C)c(C)cc32)[C@H](OC(C)=O)[C@@H](OC(C)=O)[C@@H]1OC(C)=O

1. 0.384
2. 0.289
3. -0.0001
4. 0.0927

For every item in the list below, what is its measured composite z-score?
1. COC(=O)CC=C[C@@H](C)[C@@H](C=NO[C@H](C)c1cn([C@H](CO)Cc2ccccc2)nn1)NS(=O)(=O)c1ccc(C)cc1
2. CCOC(=O)[C@H](CC(C)C)NC(=O)CCC1CC(OC(=O)NCc2ccc3c(c2)OCO3)CC2(CCCC(COC(=O)NCc3cccc(C(F)(F)F)c3)O2)O1 (stereo not given in full)
3. Cn1c(=O)n2n(c1=O)[C@H]1[C@H](O)[C@@H]3O[C@@H]3C(=NOCc3ccccc3)[C@H]1CC2

[1.56, 0.111, 0.0868]
